Entry source: the supplement of paper PMC10307832

Tested on: NCI-H1734
Assay: relative viability (nuclei count vs DMSO), 5 days (fraction); higher = more cells survive
Settings: first compound 0.3162 µM
quantity: relative viability
Numbers only.

compound | quantitative.readout
O=c1cc(N2CCOCC2)oc2c(-c3cccc4c3sc3ccccc34)cccc12 + O=C(c1cc(Cc2n[nH]c(=O)c3ccccc23)ccc1F)N1CCN(C(=O)C2CC2)CC1 [Olaparib] (partner 8 µM) | 0.638

Give me relative viability for each of these compounds, listed below.
1. CCN(CC)CCCCNc1ncc2cc(-c3cc(OC)cc(OC)c3)c(NC(=O)NC(C)(C)C)nc2n1 + Cc1cc(Nc2cc(N3CCN(C)CC3)nc(Sc3ccc(NC(=O)C4CC4)cc3)n2)n[nH]1 [Tozasertib] (partner 0.1 µM)
2. O=c1cc(N2CCOCC2)oc2c(-c3cccc4c3sc3ccccc34)cccc12 + C[C@@H](Oc1cc(-c2cnn(C3CCNCC3)c2)cnc1N)c1c(Cl)ccc(F)c1Cl [Crizotinib] (partner 1 µM)
3. CCN(CC)CCCCNc1ncc2cc(-c3cc(OC)cc(OC)c3)c(NC(=O)NC(C)(C)C)nc2n1 + CC(C)C[C@H](NC(=O)[C@H](Cc1ccccc1)NC(=O)c1cnccn1)B(O)O [Bortezomib] (partner 0.002 µM)
4. O=c1cc(N2CCOCC2)oc2c(-c3cccc4c3sc3ccccc34)cccc12 + CS(=O)(=O)CCNCc1ccc(-c2ccc3ncnc(Nc4ccc(OCc5cccc(F)c5)c(Cl)c4)c3c2)o1 [Lapatinib] (partner 2 µM)

[0.244, 0.61, 1.11, 1.04]
